- system_name: Bevacizumab (Homo sapiens, UniProt P01857)
- Construct: 0.5 mg/ml IgG in PBS pH 7.3; ligand immobilized on SEPHAR; Bevacizumab Yield; other: mass eluted (glycine pH 2.5) / mass injected; kd (dissociation constant, Langmuir isotherm); other: Bevacizumab 0.05-5 mg/ml in PBS pH 7.3, 25° C., at least 3 h; qm (maximum capacity); other: mg Bevacizumab per ml of resin; Langmuir isotherm; t0; fused on or other part: Humanized anti-VEGF-A VH domain joined N-terminally to the IGHG1 constant region (engineered, no UniProt entry)
- experimental_protocol: Langmuir isotherms by batch adsorption
- Format: binding
- test_settings: mg Bevacizumab per ml of resin; Langmuir isotherm
measured_parameter: qm (maximum capacity) (mg/mL)
# output: bare number, implied unit mg/mL

Use the examples below as a reference point.
- compound: "Cc1nc2cc(C(=O)Nc3nnc(-c4ccco4)s3)ccc2n1CCOCCOCCN"
  qm (maximum capacity), mg/mL: 45
- compound: "NCCOCCOCCn1cnc2cc(C(=O)Nc3nc(-c4ccccn4)cs3)ccc21"
  qm (maximum capacity), mg/mL: 41

Given the molecule "NCCCn1c(=O)[nH]c2cc(C(=O)Nc3nnc(-c4ccco4)s3)ccc21" , what is its reported qm (maximum capacity)?
42

Given the molecule "Cc1nnc(NC(=O)c2ccc3c(c2)ncn3CCCN)s1" , what is its reported qm (maximum capacity)?
35

Given the molecule "CCc1nc2cc(C(=O)Nc3nc(-c4ccccn4)cs3)ccc2n1CCCN" , what is its reported qm (maximum capacity)?
43

Given the molecule "Cc1nc2cc(C(=O)Nc3nnc(-c4ccco4)s3)ccc2n1CCCN" , what is its reported qm (maximum capacity)?
49

Given the molecule "NCCCn1cnc2cc(C(=O)Nc3nncs3)ccc21" , what is its reported qm (maximum capacity)?
37

* * *

- experimental_protocol: Alkaline stability of ligands in 0.5 M sodium hydroxide
- Type: physicochemical
- test_settings: 25° C., 8 days, hydrolysis monitored by LC-MS, read-out: t0.5 (half-life) (converted)
measured_parameter: half-life

Use the examples below as a reference point.
- compound: "COc1nc2cc(C(=O)Nc3nnc(-c4ccco4)s3)ccc2n1CCCN"
  half-life: "> 41.6 days"
- compound: "NCCCNc1ccc(C(=O)Nc2nnc(-c3ccco3)s2)cn1"
  half-life: "> 41.6 days"
- compound: "CCc1nc2cc(C(=O)Nc3nc(-c4ccccn4)cs3)ccc2n1CCCN"
  half-life: "> 41.6 days"

Given the compound "NCCCNc1ccc(C(=O)Nc2nc(-c3ccccn3)cs2)cn1" , what is its reported half-life?
32.6 days

Given the compound "CCc1nnc(NC(=O)c2ccc3c(c2)ncn3CCCN)s1" , what is its reported half-life?
> 41.6 days

Given the compound "CCc1nc2cc(C(=O)Nc3nnc(-c4ccco4)s3)ccc2n1CCCN" , what is its reported half-life?
> 41.6 days

Given the compound "Cc1nc2cc(C(=O)Nc3nc(-c4ccccn4)cs3)ccc2n1CCCN" , what is its reported half-life?
> 41.6 days

Given the compound "NCCCn1cnc2cc(C(=O)Nc3nc(-c4ccncc4)cs3)ccc21" , what is its reported half-life?
> 41.6 days

Given the compound "COc1ccc(NC(=O)c2nn(CCCN)c3ccccc23)cc1C(N)=O" , what is its reported half-life?
> 41.6 days

Given the compound "NCCCn1cnc2cc(NC(=O)c3cn4ccsc4n3)ccc21" , what is its reported half-life?
37.6 days

Given the compound "Cn1nc(NC(=O)c2ccc3c(c2)ncn3CCCN)c2ccccc21" , what is its reported half-life?
> 41.6 days

Given the compound "NCCCn1c(=O)[nH]c2cc(C(=O)Nc3nnc(-c4ccco4)s3)ccc21" , what is its reported half-life?
> 41.6 days

Given the compound "NCCCn1cnc2cc(C(=O)Nc3nnc(-c4ccco4)s3)ccc21" , what is its reported half-life?
> 41.6 days

* * *

- System: poly-IgG from human serum (h-poly-IgG)
- experimental_protocol: Microtiter plate chromatography of resins: binding and elution of human poly-IgG
- test_settings: fraction of injected protein bound; 0.5 mg/ml IgG in PBS pH 7.3
measured_parameter: h-poly-IgG Bound (%)
# output: bare number, implied unit %

Given the compound "CCSc1nnc(NC(=O)c2ccc3c(c2)ncn3CCCN)s1" , what is its reported h-poly-IgG Bound?
100

Given the compound "Cc1ccc(NC(=O)c2ccc3c(c2)ncn3CCCN)nn1" , what is its reported h-poly-IgG Bound?
78

Given the compound "Cn1c(CCCCCN)nc2cc(C(=O)Nc3nnc(-c4ccco4)s3)ccc21" , what is its reported h-poly-IgG Bound?
100

Given the compound "NCCOCCOc1ccc(C(=O)Nc2nnc(-c3ccco3)s2)cc1" , what is its reported h-poly-IgG Bound?
100

Given the compound "NCCCNc1ccc(C(=O)Nc2nnc(-c3ccco3)s2)cc1[N+](=O)[O-]" , what is its reported h-poly-IgG Bound?
100

* * *

- system_name: Bevacizumab (Homo sapiens, UniProt P01857)
- Construct: 0.5 mg/ml IgG in PBS pH 7.3; ligand immobilized on SEPHAR; Bevacizumab Yield; other: mass eluted (glycine pH 2.5) / mass injected; kd (dissociation constant, Langmuir isotherm); other: Bevacizumab 0.05-5 mg/ml in PBS pH 7.3, 25° C., at least 3 h; qm (maximum capacity); other: mg Bevacizumab per ml of resin; Langmuir isotherm; t0; fused on or other part: Humanized anti-VEGF-A VH domain joined N-terminally to the IGHG1 constant region (engineered, no UniProt entry)
- experimental_protocol: Uptake kinetics by batch adsorption (time-scale of binding)
- test_settings: time after which 80% of equilibrium saturation occurred; 0.75 mg/ml Bevacizumab in PBS, 25° C.
measured_parameter: t0.8 (time-scale of binding) (min)
# output: bare number, implied unit min

Use the examples below as a reference point.
- compound: "NCCOCCOCCn1cnc2cc(C(=O)Nc3nnc(-c4ccco4)s3)ccc21"
  measured_parameter: "t0.8 (time-scale of binding)"
  units_label: "min"
  measured: 6.6
- compound: "NCCCNc1ccc(C(=O)Nc2nc(-c3ccccn3)cs2)cn1"
  measured_parameter: "t0.8 (time-scale of binding)"
  units_label: "min"
  measured: 9.2

Given the compound "NCCCn1c(=O)[nH]c2cc(C(=O)Nc3nnc(-c4ccco4)s3)ccc21" , what is its reported t0.8 (time-scale of binding)?
9.4

Given the compound "CCc1nnc(NC(=O)c2ccc3c(c2)ncn3CCCN)s1" , what is its reported t0.8 (time-scale of binding)?
8.8

Given the compound "CCc1nc2cc(C(=O)Nc3nnc(-c4ccco4)s3)ccc2n1CCCN" , what is its reported t0.8 (time-scale of binding)?
7.7

* * *

# maps each entry to its Cetuximab Bound
- Tested on: Cetuximab
- experimental_protocol: Microtiter plate chromatography of resins: binding and elution of Cetuximab
- test_settings: fraction of injected protein bound; 0.5 mg/ml IgG in PBS pH 7.3
# output: bare number, implied unit %

Use the examples below as a reference point.
- compound: "NCCCn1cnc2cc(C(=O)Nc3nnc(-c4ccco4)s3)ccc21"
  system_name: "Cetuximab"
  measured: 100
- compound: "NCCCn1cnc2cc(C(=O)Nc3nc(-c4ccncc4)cs3)ccc21"
  system_name: "Cetuximab"
  measured: 100
- compound: "NCCCn1cnc2cc(C(=O)Nc3nc(-c4ccccn4)cs3)ccc21"
  system_name: "Cetuximab"
  measured: 100
- compound: "NCCOCCOCCn1cnc2cc(C(=O)Nc3nnc(-c4ccco4)s3)ccc21"
  system_name: "Cetuximab"
  measured: 99

Please find the next compound below.
Given the compound "Cc1nc2cc(C(=O)Nc3nnc(-c4ccco4)s3)ccc2n1CCOCCOCCN" , what is its reported Cetuximab Bound?
100

* * *

- System: Tocilizumab
- experimental_protocol: Microtiter plate chromatography of resins: binding and elution of Tocilizumab
- test_settings: L55-73: estimated values based on the knowledge obtained from L01-L54
measured_parameter: Tocilizumab Bound

Use the examples below as a reference point.
- compound: "CCc1nc2cc(C(=O)Nc3nc(-c4ccco4)cs3)ccc2n1CCCN"
  system_name: "Tocilizumab"
  measured_parameter: "Tocilizumab Bound"
  measured: ">95%"
- compound: "NCCCNc1nc(-c2ccc(C(=O)Nc3nnc(-c4ccco4)s3)cc2)cs1"
  system_name: "Tocilizumab"
  measured_parameter: "Tocilizumab Bound"
  measured: ">80%"
- compound: "NCCCn1cnc2cc(C(=O)Nc3ccc(-c4ccco4)nn3)ccc21"
  system_name: "Tocilizumab"
  measured_parameter: "Tocilizumab Bound"
  measured: ">90%"
- compound: "Cc1nc2cc(C(=O)Nc3nnc(-c4ccno4)s3)ccc2n1CCCN"
  system_name: "Tocilizumab"
  measured_parameter: "Tocilizumab Bound"
  measured: ">90%"

Given the molecule "Cc1nc2cc(C(=O)Nc3nnc(-c4ncco4)s3)ccc2n1CCCN" , what is its reported Tocilizumab Bound?
>90%

* * *

# maps each entry to its Cetuximab Bound
- Test system: Cetuximab
- experimental_protocol: Microtiter plate chromatography of resins: binding and elution of Cetuximab
- test_settings: fraction of injected protein bound; 0.5 mg/ml IgG in PBS pH 7.3
# output: bare number, implied unit %

Use the examples below as a reference point.
- compound: "Cc1nnc(NC(=O)c2ccc3c(c2)ncn3CCCN)s1"
  measured_parameter: "Cetuximab Bound"
  measured: 100
- compound: "NCCCn1cnc2cc(C(=O)Nc3nc(-c4cccnc4)cs3)ccc21"
  measured_parameter: "Cetuximab Bound"
  measured: 100
- compound: "NCCCNc1ccc(C(=O)Nc2nnc(-c3ccco3)s2)cc1[N+](=O)[O-]"
  measured_parameter: "Cetuximab Bound"
  measured: 100
- compound: "CCSc1nnc(NC(=O)c2ccc3c(c2)ncn3CCCN)s1"
  measured_parameter: "Cetuximab Bound"
  measured: 100

Given the molecule "N[C@@H](CCC(=O)NCCOCCOCCn1cnc2cc(C(=O)Nc3nnc(-c4ccco4)s3)ccc21)C(=O)NCCOCCOCCn1cnc2cc(C(=O)Nc3nnc(-c4ccco4)s3)ccc21" , what is its reported Cetuximab Bound?
100

Given the molecule "COc1nc2cc(C(=O)Nc3nnc(-c4ccco4)s3)ccc2n1CCCN" , what is its reported Cetuximab Bound?
100

Given the molecule "Cc1nsc(NC(=O)c2ccc3c(c2)ncn3CCCN)n1" , what is its reported Cetuximab Bound?
99

Given the molecule "NCCCn1cnc2cc(C(=O)Nc3nnc(-c4ccc5c(c4)OCO5)s3)ccc21" , what is its reported Cetuximab Bound?
100

Given the molecule "NCCCn1cnc2cc(C(=O)Nc3nnc(C4CC4)s3)ccc21" , what is its reported Cetuximab Bound?
100

Given the molecule "Cn1nc(C(=O)Nc2ccc3c(c2)ncn3CCCN)c2ccccc21" , what is its reported Cetuximab Bound?
100
